Experiment: Phase I 2-way drug interaction study, steady-state plasma pharmacokinetics
Type: in vivo, healthy adults
Details: human, plasma, 200 mg
reportedEndpoint: AUC (ng·h/mL)

[[record]]
smilestext = "C=C(C)[C@@H]1CC[C@]2(NCCN3CCS(=O)(=O)CC3)CC[C@]3(C)[C@H](CC[C@@H]4[C@@]5(C)CC=C(C6=CC[C@@](CF)(C(=O)O)CC6)C(C)(C)[C@@H]5CC[C@]43C)[C@@H]12"
readoutnumber = 26700


----------
Assay: Phase I 2-way drug interaction study, steady-state plasma pharmacokinetics
Type: in vivo, healthy adults
Conditions: human, plasma, 50 mg
reportedEndpoint: concentration at 24 h (ng/mL)

[[record]]
molecule = "C[C@@H]1CCO[C@H]2Cn3cc(C(=O)NCc4ccc(F)cc4F)c(=O)c(O)c3C(=O)N12 [dolutegravir, reference compound]"
readoutnumber = 1370


----------
Experiment: Phase I 2-way drug interaction study, steady-state plasma pharmacokinetics
Format: in vivo, healthy adults
Details: human, plasma, 200 mg
reportedEndpoint: concentration at 24 h (ng/mL)

[[record]]
smilestext = "C=C(C)[C@@H]1CC[C@]2(NCCN3CCS(=O)(=O)CC3)CC[C@]3(C)[C@H](CC[C@@H]4[C@@]5(C)CC=C(C6=CC[C@@](CF)(C(=O)O)CC6)C(C)(C)[C@@H]5CC[C@]43C)[C@@H]12"
unitname = "ng/mL"
readoutnumber = 860

